Origin of values: paper PMC13210772

test-description: in vitro
test-parameters: CD-1, mouse, liver microsomes, pH 7.4
quantity-name: remaining at 2 h, 25 µM
Express your answer as a number followed by its unit.

input: Entry Cc1ncsc1-c1ccc([C@H](C)NC(=O)[C@@H]2C[C@@H](O)CN2C(=O)[C@@H](NC(=O)[C@H]2CC[C@H](C(=O)N3CCN(CCNC(=O)c4cc(Oc5ccc(NC(=O)Nc6cc(C(C)(C)C)on6)cc5)ccn4)CC3)CC2)C(C)(C)C)cc1 [MA191] : reported remaining at 2 h, 25 µM = ?
output: 91%

input: Look up remaining at 2 h, 25 µM for this molecule: Cc1ncsc1-c1ccc([C@H](C)NC(=O)[C@@H]2C[C@@H](O)CN2C(=O)[C@@H](NC(=O)[C@H]2CC[C@H](C(=O)N3CCC(CCNC(=O)c4cc(Oc5ccc(NC(=O)Nc6cc(C(C)(C)C)on6)cc5)ccn4)CC3)CC2)C(C)(C)C)cc1 [MA190]
output: 91%

input: Would you mind telling me what remaining at 2 h, 25 µM value was observed for O=C(O)Cc1ccccc1Nc1c(Cl)cccc1Cl [Diclofenac, Diclofenac sodium, reference compound] ?
output: 59%

input: # remaining at 2 h, 25 µM lookup, item Cc1ncsc1-c1ccc([C@H](C)NC(=O)[C@@H]2C[C@@H](O)CN2C(=O)[C@@H](NC(=O)CCOCCOCCOCCNC(=O)c2cc(Oc3ccc(NC(=O)Nc4cc(C(C)(C)C)on4)cc3)ccn2)C(C)(C)C)cc1 [MA49, reference compound]
output: 15%
